Assay: Pharmacokinetic studies in mice (IV and PO)
Format: in vivo
Conditions: mouse, plasma, PO 10 mg/kg
Procedure: Administration: Mice in the IV group was dosed at 2 mg/kg (20% PEG 400+10% Cremophor EL+70% PBS 7.4) via tail vein injection (N=9). Mice in the PO group was dosed at 10 mg/kg (20% PEG 400+10% Cremophor EL+70% PBS 7.4) via oral gavage (N=9). All the mice were fasted overnight before dosing and had free access to food 4 hr post dosing. […]
OUTCOME_MEASURE: AUC(0-t) (ng·h/mL)

CO[C@H]1C2=CC(C2)[C@H](C)CS(=O)(=O)NC(=O)c2ccc3c(c2)N(C[C@@H]2CC[C@H]21)C[C@@]1(CCCc2cc(Cl)ccc21)CO3 (single isomer, unassigned) [Cpd. No. 14 (Isomer 1)]    31400

[1] CO[C@H]1C2=C[C@@H](C2)[C@H](C)[C@@H](C)S(=O)(=O)NC(=O)c2ccc3c(c2)N(C[C@@H]2CC[C@H]21)C[C@@]1(CCCc2cc(Cl)ccc21)CO3 (single isomer, unassigned) [Cpd. No. 15 (isomer 1)]
[2] CO[C@H]1C2=CC(C2)[C@H](C)[C@@H](C)S(=O)(=O)NC(=O)c2ccc3c(c2)N(C[C@@H]2CC[C@H]21)C[C@@]1(CCCc2cc(Cl)cc(F)c21)CO3 (single isomer, unassigned) [20 (isomer 1)]
[3] CO[C@H]1C2=CC(C)(C2)[C@H](C)CS(=O)(=O)NC(=O)c2ccc3c(c2)N(C[C@@H]2CC[C@H]21)C[C@@]1(CCCc2cc(Cl)ccc21)CO3 (mixture of isomers) [13 (mixture)]
rank_up(items): orders items by reported AUC(0-t) in ascending numerical order. A complete answer lists every label in the requested sequence. 3, 2, 1
(3: 14400 ng·h/mL, 2: 22300 ng·h/mL, 1: 33000 ng·h/mL)
